// provenance: ChEMBL document CHEMBL3872237

assay: Haemolytic activity in New Zealand rabbit erythrocytes after 60 mins; assay type: ADME, cell-based, Oryctolagus cuniculus, Erythrocyte; conditions: read-out: HD50
Listed here are compounds together with their documented HC50 at 1 h.

compound: C[C@@H]1O[C@@H](O[C@H]2C(O[C@H]3CC[C@]4(C)[C@H]5CC=C6[C@@H]7CC(C)(C)CC[C@]7(C(=O)O)CC[C@@]6(C)[C@]5(C)CC[C@H]4C3(C)C)OC[C@H](O[C@@H]3O[C@H](CO)[C@@H](O)[C@H](O)[C@H]3O)[C@@H]2O)[C@H](O)[C@H](O)[C@H]1O (single isomer, unassigned) [HEDERACOLCHISIDE A1]
unit-abbreviation: µM
HC50 at 1 h: 6.7
//
compound: C[C@@H]1O[C@@H](O[C@H]2[C@H](O[C@H]3CC[C@]4(C)[C@H]5CC=C6[C@@H]7CC(C)(C)CC[C@]7(C(=O)OCCCOc7no[n+]([O-])c7S(=O)(=O)c7ccccc7)CC[C@@]6(C)[C@]5(C)CC[C@H]4C3(C)C)OC[C@H](O[C@@H]3O[C@H](CO)[C@@H](O)[C@H](O)[C@H]3O)[C@@H]2O)[C@H](O)[C@H](O)[C@H]1O
unit-abbreviation: µM
HC50 at 1 h: 280
